test_target: Mu-type opioid receptor (Rattus norvegicus)
Sequence (P33535 whole entry): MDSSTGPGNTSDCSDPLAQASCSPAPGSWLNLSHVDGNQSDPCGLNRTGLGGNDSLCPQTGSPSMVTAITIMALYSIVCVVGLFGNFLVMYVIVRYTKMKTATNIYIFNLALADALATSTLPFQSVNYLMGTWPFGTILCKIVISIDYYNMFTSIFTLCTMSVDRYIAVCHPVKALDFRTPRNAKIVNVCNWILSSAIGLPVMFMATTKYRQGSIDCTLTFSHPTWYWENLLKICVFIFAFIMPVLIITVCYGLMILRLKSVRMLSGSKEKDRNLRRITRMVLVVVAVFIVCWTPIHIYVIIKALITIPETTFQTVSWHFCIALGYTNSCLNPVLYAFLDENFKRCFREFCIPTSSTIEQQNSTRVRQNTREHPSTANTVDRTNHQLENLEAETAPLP
run_description: Binding affinity against Opioid receptor mu 1 from rat brain membranes using [3H]DAMGO
Returns: string. Value is TRUE if measured Ki is below 200 nM, and FALSE if it is greater than or equal to it.

CC(C)=CCN1CC[C@]23c4c5ccc(O)c4O[C@@H]2c2[nH]c4ccccc4c2C[C@@]3(O)[C@H]1C5 : FALSE
Cc1cc(-c2ccccc2)c2c(n1)[C@@H]1Oc3c(O)ccc4c3C13CCN(CC1CC1)C(C4)[C@]3(O)C2 (stereo partly specified) : TRUE
Oc1ccc2c3c1O[C@@H]1c4[nH]c5c(Oc6ccccc6)cccc5c4C[C@@]4(O)[C@@H](C2)N(CC2CC2)CC[C@]314 : TRUE
CCN1CC[C@]23CC4Nc5ccccc5C4C[C@H]2C1Cc1ccc(OC)c(O)c13 (stereo partly specified) : FALSE
CCCCN1CC[C@]23c4c5ccc(O)c4O[C@@H]2c2[nH]c4ccccc4c2C[C@@]3(O)[C@H]1C5 : FALSE

## Input Consider the molecule `Oc1ccc2c3c1O[C@@H]1c4[nH]c5cccc(Oc6ccccc6)c5c4C[C@@]4(O)[C@@H](C2)N(CC2CC2)CC[C@]314` . Is its Ki strictly less than 200 nM?
## Output FALSE

## Input Follow-up entry: C=C(C)CN1CCC23c4c5ccc(O)c4O[C@H]2c2[nH]ncc2C[C@@]3(O)C1C5 (stereo partly specified)
## Output TRUE

## Input Follow-up entry: CCCCOc1cccc2c1C13CCN(CC4CC4)C(C2)[C@]1(OCCCc1ccccc1)CCC(=O)C3 (stereo partly specified)
## Output TRUE

## Input Follow-up entry: `CCCN1CC[C@]23c4c5ccc(O)c4O[C@@H]2c2[nH]c4ccccc4c2C[C@@]3(O)[C@H]1C5`
## Output FALSE

## Input Follow-up entry: Oc1ccc2c3c1O[C@H]1c4ncc(-c5ccc(Cl)cc5)cc4C[C@H]4C(C2)N(CC2CC2)CCC314 (stereo partly specified)
## Output TRUE

----------
test_target: Delta-type opioid receptor (Rattus norvegicus)
Sequence (P33533 whole entry): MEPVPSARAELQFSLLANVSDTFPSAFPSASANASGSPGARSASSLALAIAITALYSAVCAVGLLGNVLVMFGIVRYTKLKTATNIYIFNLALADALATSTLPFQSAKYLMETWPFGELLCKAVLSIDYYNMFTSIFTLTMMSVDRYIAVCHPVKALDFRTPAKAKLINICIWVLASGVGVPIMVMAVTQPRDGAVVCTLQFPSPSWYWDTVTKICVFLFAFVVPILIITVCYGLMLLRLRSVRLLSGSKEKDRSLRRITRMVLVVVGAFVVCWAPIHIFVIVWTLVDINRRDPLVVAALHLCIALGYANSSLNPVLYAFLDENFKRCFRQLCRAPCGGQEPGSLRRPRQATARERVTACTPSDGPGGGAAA
run_description: Binding affinity against Opioid receptor delta 1 from rat brain membranes using [3H]DADLE
observed_property: Ki (nM)
State just the number; it will be interpreted in nM.

COc1ccc2c(c1O)[C@]13CCN(CC4CC4)C(C2)[C@@H]1CC1c2ccccc2NC1C3 (some centres undefined) : 7.08
Oc1ccc2c3c1O[C@H]1c4nc(-c5ccccc5)ncc4C[C@@]4(O)C(C2)N(CC2CC2)CCC314 (some centres undefined) : 15.8
C=CCN1CCC23c4c5ccc(O)c4O[C@H]2c2ncc(-c4ccc(Cl)cc4)cc2C[C@@]3(O)C1C5 (some centres undefined) : 8.13

## Input Please provide the recorded Ki for C=CCN1CCC23c4c5ccc(O)c4O[C@@]2(C)c2[nH]c4ccccc4c2C[C@@]3(OCC)C1C5 (some centres undefined) , tested on Delta-type opioid receptor (Rattus norvegicus).
## Output 10.7

----------
Parameter: Ki. Scope: all listed entries.
test_target: Kappa-type opioid receptor (Cavia porcellus, UniProt P41144)
Sequence (P41144 whole entry): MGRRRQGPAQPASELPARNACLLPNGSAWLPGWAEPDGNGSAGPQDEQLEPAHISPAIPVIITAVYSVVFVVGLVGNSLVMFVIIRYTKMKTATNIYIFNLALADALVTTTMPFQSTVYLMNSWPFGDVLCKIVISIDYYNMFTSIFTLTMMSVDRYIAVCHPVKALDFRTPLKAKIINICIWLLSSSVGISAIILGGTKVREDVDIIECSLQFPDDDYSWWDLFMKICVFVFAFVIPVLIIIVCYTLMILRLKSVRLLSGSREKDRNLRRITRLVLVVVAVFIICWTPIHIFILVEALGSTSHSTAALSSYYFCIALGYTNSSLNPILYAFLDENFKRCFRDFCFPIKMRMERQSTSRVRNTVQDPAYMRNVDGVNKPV
run_description: Binding affinity against Opioid receptor kappa 1 from guinea pig brain membranes using [3H]U-69593
State just the number; it will be interpreted in nM.

Would you please look over these solved cases?
CCCCCCN1CC[C@]23c4c5ccc(O)c4O[C@@H]2c2[nH]c4ccccc4c2C[C@@]3(O)[C@H]1C5 : 3090
CC1c2c([nH]c3ccccc23)[C@H]2Oc3c(O)ccc4c3[C@@]23CCN(CC2CC2)[C@H](C4)[C@H]13 (some centres not stated) : 36.3
CCN1CC[C@]23c4c5ccc(O)c4O[C@@H]2c2[nH]c4ccccc4c2C[C@@]3(O)[C@H]1C5 : 3020
CC1c2c([nH]c3ccccc23)[C@H]2Oc3c(O)ccc4c3[C@@]23CCN(C)[C@H](C4)[C@H]13 (some centres not stated) : 126

## Input Ki for C=C(C)CN1CCC23c4c5ccc(OC)c4O[C@H]2c2[nH]ncc2C[C@@]3(O)C1C5 (some centres not stated) ?
## Output 3090

## Input Follow-up entry: CCCCCCOc1cccc2c1C13CCN(CC4CC4)C(C2)[C@]1(OC)CCC(=O)C3 (some centres not stated)
## Output 437

## Input Follow-up entry: COc1cccc2c1C13CCN(CC4CC4)C(C2)[C@]1(OCCCc1ccccc1)CCC(=O)C3 (some centres not stated)
## Output 7.41
